# Tested on: RARb:RXRa (NR concentration 270 nM, RXRa partner concentration 90 nM)
# assay.explanation: PBM binding z-score (relative to random genomic background probes); higher = stronger binding; sequences stand for … in GC…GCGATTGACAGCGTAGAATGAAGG
endpoint: PBM binding z-score

[
  {
    "item.sequence": "ATCTCTAGGTATCAAGTTCAGTGAAAGAGAGGAC",
    "val": 1.59
  },
  {
    "item.sequence": "TCAGACAGGTGGAGGTAACTCAGGTACGCAGTCG",
    "val": 0.399
  },
  {
    "item.sequence": "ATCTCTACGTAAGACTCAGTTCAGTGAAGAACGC",
    "val": 0.279
  },
  {
    "item.sequence": "TCTCGGAGTACACGAAGGTCAGAGCTTTCCAGAG",
    "val": 2.58
  },
  {
    "item.sequence": "AGAATGCGGTTATTAAGATCAGGGAATTGCGGTC",
    "val": -0.0684
  },
  {
    "item.sequence": "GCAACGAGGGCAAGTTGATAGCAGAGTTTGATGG",
    "val": 2.8
  }
]
